Biological target: Bifunctional cytochrome P450/NADPH--P450 reductase [A82F,F87V] (Bacillus megaterium, UniProt P14779, A82F/F87V)
Sequence (P14779 whole entry A83F/F88V): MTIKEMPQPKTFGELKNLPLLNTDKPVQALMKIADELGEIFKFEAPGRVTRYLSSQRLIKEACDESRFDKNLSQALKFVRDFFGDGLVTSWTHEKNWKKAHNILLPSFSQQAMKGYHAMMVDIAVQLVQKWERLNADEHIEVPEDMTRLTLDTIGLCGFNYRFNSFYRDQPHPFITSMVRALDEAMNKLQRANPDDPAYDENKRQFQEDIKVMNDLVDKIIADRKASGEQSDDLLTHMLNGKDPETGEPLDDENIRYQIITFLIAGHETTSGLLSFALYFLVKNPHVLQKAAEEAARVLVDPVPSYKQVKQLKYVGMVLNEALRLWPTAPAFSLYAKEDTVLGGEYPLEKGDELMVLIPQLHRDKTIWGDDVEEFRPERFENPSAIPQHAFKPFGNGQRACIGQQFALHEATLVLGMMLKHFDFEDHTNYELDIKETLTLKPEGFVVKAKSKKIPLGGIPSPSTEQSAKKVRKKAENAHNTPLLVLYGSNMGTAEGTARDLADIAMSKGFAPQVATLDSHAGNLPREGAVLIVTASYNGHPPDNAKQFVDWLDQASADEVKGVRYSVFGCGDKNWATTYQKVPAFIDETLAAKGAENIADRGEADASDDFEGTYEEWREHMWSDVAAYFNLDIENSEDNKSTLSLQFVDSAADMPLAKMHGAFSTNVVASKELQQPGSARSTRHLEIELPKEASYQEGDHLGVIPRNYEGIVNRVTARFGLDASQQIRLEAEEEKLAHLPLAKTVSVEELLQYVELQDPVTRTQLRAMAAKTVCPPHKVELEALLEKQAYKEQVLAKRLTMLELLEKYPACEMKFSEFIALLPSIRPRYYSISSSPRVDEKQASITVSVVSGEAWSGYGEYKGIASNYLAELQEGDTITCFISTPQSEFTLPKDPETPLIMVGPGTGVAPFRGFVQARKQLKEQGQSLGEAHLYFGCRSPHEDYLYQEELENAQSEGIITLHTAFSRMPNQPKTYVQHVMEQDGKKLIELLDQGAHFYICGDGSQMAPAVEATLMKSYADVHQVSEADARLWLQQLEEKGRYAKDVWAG
Assay: Optical Titration Assay
Conditions: pH 7
Quantity Measured: Kd (nM)

Molecule: CCCCCCCCCCCCCCCC(=O)NCC(=O)O
Value Observed: 4

Molecule: COc1ccc2[nH]c([S+]([O-])Cc3ncc(C)c(OC)c3C)nc2c1 (configuration not stated)
Value Observed: 212

###

Kd: recorded values
Target: Bifunctional cytochrome P450/NADPH--P450 reductase [F87V] (Bacillus megaterium, UniProt P14779, F87V)
Assay: Optical Titration Assay
Settings: pH 7

Compound: CCCCCCCCCCCCCCCC(=O)NCC(=O)O [N-palmitoylglycine (NPG)]
Kd / µM: 0.204

Compound: COc1ccc2[nH]c([S+]([O-])Cc3ncc(C)c(OC)c3C)nc2c1 (configuration not stated) [H-168/68]
Kd / µM: 49
